# System: ABC-1
# Assay: relative viability (nuclei count vs DMSO), 5 days (fraction); higher = more cells survive
# Measurement setup: first compound 8 µM
relative viability vs 1: less than gives class 1; not less than gives class 0.

## Input Confirm or reject: relative viability of O=c1cc(-c2cccc3c2Sc2ccccc2S3)oc(N2CCOCC2)c1 + COc1cc2c(Oc3ccc(NC(=O)C4(C(=O)Nc5ccc(F)cc5)CC4)cc3F)ccnc2cc1OCCCN1CCOCC1 [Foretinib] (partner 0.25 µM) lies strictly below 1
## Output class 0

Continuing:
## Input Confirm or reject: relative viability of O=c1cc(-c2cccc3c2Sc2ccccc2S3)oc(N2CCOCC2)c1 + C[C@]1(O)C[C@@H](c2nc(-c3ccc4ccc(-c5ccccc5)nc4c3)c3c(N)nccn32)C1 [Linsitinib] (partner 1 µM) lies strictly below 1
## Output class 1

## Input Confirm or reject: relative viability of O=c1cc(-c2cccc3c2Sc2ccccc2S3)oc(N2CCOCC2)c1 + N=C(N)NC(=N)NCCc1ccccc1 [Phenformin] (partner 250 µM) lies strictly below 1
## Output class 1

## Input Confirm or reject: relative viability of O=c1cc(-c2cccc3c2Sc2ccccc2S3)oc(N2CCOCC2)c1 + Cc1nc(NC(=O)N2CCC[C@H]2C(N)=O)sc1-c1ccnc(C(C)(C)C(F)(F)F)c1 [Alpelisib] (partner 2 µM) lies strictly below 1
## Output class 1

## Input Confirm or reject: relative viability of O=c1cc(-c2cccc3c2Sc2ccccc2S3)oc(N2CCOCC2)c1 + CC(=O)c1c(C)c2cnc(Nc3ccc(N4CCNCC4)cn3)nc2n(C2CCCC2)c1=O [Palbociclib] (partner 0.5 µM) lies strictly below 1
## Output class 1

## Input Confirm or reject: relative viability of O=c1cc(-c2cccc3c2Sc2ccccc2S3)oc(N2CCOCC2)c1 + C[C@@H](Oc1cc(-c2cnn(C3CCNCC3)c2)cnc1N)c1c(Cl)ccc(F)c1Cl [Crizotinib] (partner 1 µM) lies strictly below 1
## Output class 0

## Input Confirm or reject: relative viability of O=c1cc(-c2cccc3c2Sc2ccccc2S3)oc(N2CCOCC2)c1 + CC(C)C[C@H](NC(=O)[C@H](Cc1ccccc1)NC(=O)c1cnccn1)B(O)O [Bortezomib] (partner 0.002 µM) lies strictly below 1
## Output class 1

* * *

# System: LC-2-ad
# Assay: relative viability (nuclei count vs DMSO), 5 days (fraction); higher = more cells survive
# Measurement setup: first compound 8 µM
In this section, each of the compounds is paired with its reported relative viability.
Could you respond with only the numeric value?

// known answers, use as guide
## Input Provide relative viability, recorded with LC-2-ad, of O=c1cc(-c2cccc3c2Sc2ccccc2S3)oc(N2CCOCC2)c1 + CS(=O)(=O)CCNCc1ccc(-c2ccc3ncnc(Nc4ccc(OCc5cccc(F)c5)c(Cl)c4)c3c2)o1 [Lapatinib] (partner 2 µM)
## Output 0.956

## Input Provide relative viability, recorded with LC-2-ad, of O=c1cc(-c2cccc3c2Sc2ccccc2S3)oc(N2CCOCC2)c1 + Nc1ncn([C@H]2C[C@H](O)[C@@H](CO)O2)c(=O)n1 [Decitabine] (partner 2 µM)
## Output 0.793

## Input Provide relative viability, recorded with LC-2-ad, of O=c1cc(-c2cccc3c2Sc2ccccc2S3)oc(N2CCOCC2)c1 + O=C(c1cc(Cc2n[nH]c(=O)c3ccccc23)ccc1F)N1CCN(C(=O)C2CC2)CC1 [Olaparib] (partner 8 µM)
## Output 0.64

## Input Provide relative viability, recorded with LC-2-ad, of O=c1cc(-c2cccc3c2Sc2ccccc2S3)oc(N2CCOCC2)c1 + Cc1nc(NC(=O)N2CCC[C@H]2C(N)=O)sc1-c1ccnc(C(C)(C)C(F)(F)F)c1 [Alpelisib] (partner 2 µM)
## Output 0.75

## Input Provide relative viability, recorded with LC-2-ad, of O=c1cc(-c2cccc3c2Sc2ccccc2S3)oc(N2CCOCC2)c1 + Nc1nc2[nH]cc(CCc3ccc(C(=O)N[C@@H](CCC(=O)O)C(=O)O)cc3)c2c(=O)[nH]1 [Pemetrexed] (partner 0.2 µM)
## Output 0.27

Continuing:
## Input Provide relative viability, recorded with LC-2-ad, of O=c1cc(-c2cccc3c2Sc2ccccc2S3)oc(N2CCOCC2)c1 + COc1cccc2cc(-c3nc([C@H]4CC[C@H](C(=O)O)CC4)n4ncnc(N)c34)[nH]c12 [OSI-027] (partner 0.5 µM)
## Output 0.727
